# credit: ChEMBL document CHEMBL3988442

Biological target: Arginase-2, mitochondrial (Homo sapiens) (UniProt P78540)
Sequence (P78540 whole entry): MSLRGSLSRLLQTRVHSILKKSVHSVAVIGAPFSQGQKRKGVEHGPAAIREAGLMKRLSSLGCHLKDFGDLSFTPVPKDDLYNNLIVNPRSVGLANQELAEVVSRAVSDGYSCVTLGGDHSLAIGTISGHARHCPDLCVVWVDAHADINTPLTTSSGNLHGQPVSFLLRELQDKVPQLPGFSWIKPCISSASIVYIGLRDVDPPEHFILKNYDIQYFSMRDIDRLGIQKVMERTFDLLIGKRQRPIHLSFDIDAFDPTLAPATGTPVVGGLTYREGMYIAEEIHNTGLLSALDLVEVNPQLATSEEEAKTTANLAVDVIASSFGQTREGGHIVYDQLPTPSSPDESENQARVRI
Assay: in vitro enzyme assay to detect the production of urea directly proportional to the activity of Arginase II
Assay type: functional
Set-up: scale not given: in the data most compounds retested in dose-response had high values
Details: 33.3 µM
assay.endpoint: Percent Effect (%)

INSERT INTO results (compound, assay_endpoint, assay_value) VALUES
  ('O[C@H]1[C@H](n2cc(-c3ccccc3)nn2)c2ccccc2C12CCNCC2', 'Percent Effect', -1.77),
  ('O=C(c1cccc(Cl)c1)N1CC[C@H]2[C@H]1CCN2CC1CCOCC1', 'Percent Effect', 1.17),
  ('CC(C(=O)NCCOc1ccc2c(c1)OCO2)n1cncn1 (stereo unspecified)', 'Percent Effect', 6.08),
  ('CCn1nccc1CNC(=O)C1CC1', 'Percent Effect', -4.14),
  ('CN(C)c1cc2c(nn1)CCN(C(=O)C1Cc3ccccc3S1)C2 (stereo unspecified)', 'Percent Effect', 1.14),
  ('Cn1cccc1C(=O)N1CCC2(CC1)CN(c1ccccn1)CCO2', 'Percent Effect', -55.2),
  ('COc1cccc2cc(CNC(C)(C)C(=O)N3CCC(O)CC3)oc12', 'Percent Effect', -0.76),
  ('COCc1nc(C(=O)N2CCCC2c2c(C)nn(C)c2C)cs1 (stereo unspecified)', 'Percent Effect', 0.645),
  ('NC(=O)C1CN(C(=O)Nc2ccccc2N2CCCCCC2)CCO1 (stereo unspecified)', 'Percent Effect', -3.88),
  ('COc1ccc(-c2nnc(SC(C)C(=O)NCC(C)C)[nH]2)c(OC)c1 (stereo unspecified)', 'Percent Effect', -3.55),
  ('Cc1n[nH]c(C)c1C1COCCN1C(=O)Cc1cccc(F)c1 (stereo unspecified)', 'Percent Effect', 2.73);
